Source listed as ChEMBL document CHEMBL4689842.

Test system: Fibroblast
Assay: Multiplex assay against human fibroblast
Assay type: toxicity, cell-based
Details: 24 h, 1 µM, compound concentration 1 uM, replicate 1
Measured endpoint: Population Normal (%)
Return type: number; implicit unit %.

Q: Notebook entry, Fibroblast assay: Population Normal (%) of "Cl.O=C(O)c1cc(-c2ccc(C3CCNCC3)cc2)c2ccc(-c3ccc(C(F)(F)F)cc3)cc2c1" = ?
A: 78

Q: Fill in the recorded Population Normal (%) for this compound, with Fibroblast as test system: "CCOC(=O)Nc1cc(-c2ccc(C)c(NS(C)(=O)=O)c2)nn2c(C)nnc12"
A: 87

Q: Please provide the recorded Population Normal (%) for "CCc1ccc(OCc2ccccc2C(=O)Nc2ccc3nc(C)cc(N)c3c2)cc1.Cl" , tested on Fibroblast.
A: 86

Q: Can you look up Population Normal (%) on Fibroblast for "C=CC(=O)Nc1cccc(Oc2nc(Nc3ccc(N4CCN(C)CC4)cc3OC)ncc2Cl)c1" ?
A: 52

Q: Enter reported Population Normal (%) observed with Fibroblast for Cc1ccccc1C(c1ccccc1C)N1C2CCC1CC(O)(c1ccccc1)C2 (stereo unspecified)
A: 79

Q: Lab note: need Population Normal (%) with Fibroblast for entry C[C@]12CC[C@@H]3c4ccc(O)cc4CC[C@H]3[C@@H]1CC[C@@H]2O [ESTRADIOL] , please look it up.
A: 82

====

Tested on: Fibroblast
Test: Incucyte cell viability with human fibroblast; also: filed as whole numbers so only -1 and 0 and 1 occur
Format: toxicity, cell-based
Conditions: 0 h, 10 µM, compound concentration 10 uM, replicate number 2, timepoint 0 hours
Measured endpoint: Growth Rate
Lab note: record just the number, no unit beside it.

Q: Value lookup for Growth Rate; key = "C[C@H](NC(=O)c1cnc2n1[C@](C)(Cc1ccc(C#N)cc1)C(=O)N2c1cc(Cl)c(F)c(Cl)c1)C(=O)NC1(c2ccccn2)CC1"
A: 1

Q: Please give the measured Growth Rate for this molecule: "CN1CCN(Cc2cc(NC(=O)c3ccc4c(c3)CN(c3ccccc3)CC4)cc(C(F)(F)F)c2)CC1"
A: 1

Q: Growth Rate for "Cn1c(CNc2cccc(C(=O)NCc3ccccc3C(F)(F)F)c2)nnc1-c1ccncc1" ?
A: 0

Q: # input molecule: "O=c1cc(N2CCOCC2)oc2c(-c3cccc4c3sc3ccccc34)cccc12" ; wanted: its Growth Rate
A: 0

Q: Please report the recorded Growth Rate for "CCCOc1ccc([C@H]2[C@H](C(=O)O)[C@@H](c3ccc4c(c3)OCO4)CN2CC(=O)Nc2c(CC)cccc2CC)cc1" .
A: 1

Q: What value of Growth Rate has been reported for the following molecule? "Nc1ncnc2c1ccn2[C@@H]1O[C@H]([C@H](O)c2ccccc2)[C@@H](O)[C@H]1O"
A: 0

Q: Growth Rate for "O[C@H]1CC[C@H](Nc2ncc3nc(Nc4c(F)cc(F)cc4F)n([C@H]4CCOC4)c3n2)CC1" ?
A: 0

Q: Form field: reported Growth Rate of "C[C@]1(O)C[C@@H](c2nc(-c3ccc4ccc(-c5ccccc5)nc4c3)c3c(N)nccn32)C1"
A: 0

Q: What Growth Rate value was documented for this molecule, "CNC(=O)Nc1ccc2c(c1)[C@@]1(CC2)OC(=O)N(CC(=O)N(Cc2ccc(F)cc2)[C@@H](C)C(F)(F)F)C1=O" ?
A: 0

Q: Given "CCOC(=O)c1cc2cc(-c3cc(C(=O)NCc4ccc(C(=O)O)cc4)nn3C)ccc2[nH]1" , state its recorded Growth Rate.
A: 0

Q: Name the reported Growth Rate value associated with the molecule "Cc1cc(-n2nc(Cc3cc(F)cc(C(F)(F)F)c3)nc2C)ccc1C(N)=O"
A: 1

Q: Reported Growth Rate for "O=C(O)Cn1c(C(=O)Nc2nc(-c3ccccc3Cl)cs2)cc2ccccc21" : what is it?
A: 1

Q: Reported Growth Rate, molecule "Cc1cc([C@@H](C)Nc2ccccc2C(=O)O)c2nc(N3CCOCC3)cc(=O)n2c1" : ____
A: 0

Q: Growth Rate lookup needed for "C[C@]1(C(=O)N(CCCC(=O)O)Cc2cccc(Cl)c2)CCN1C(=O)c1csc2ccccc12" , thanks.
A: 1

Q: What does the record list as Growth Rate for "COc1ccc(S(=O)(=O)c2cc(OC)ccc2S(=O)(=O)c2ccc([C@H](C)NS(C)(=O)=O)cc2)cc1" ?
A: 1

Q: Which Growth Rate value belongs to "COc1cc(-c2cn([C@H]3CCc4ccccc4N(CC(F)(F)F)C3=O)nn2)ccc1-n1ccc(C)n1" ?
A: 0

Q: I have this molecule here, "O=c1[nH]c2ccccc2n1C1CCN(Cc2ccc(-c3[nH]c4cc5ncnc5cc4nc3-c3ccccc3)cc2)CC1" , and I need its recorded Growth Rate.
A: 0

Q: What value of measured Growth Rate is listed for "O=C1CCc2cc(Nc3cc(OC4CCOCC4)c([N+](=O)[O-])cc3Cl)ccc2N1" ?
A: 0

Q: Which value of Growth Rate has been reported for "CNC(=O)c1ccc(Nc2ncc(C(F)(F)F)c(NCc3nccnc3N(C)S(C)(=O)=O)n2)cc1" in the records?
A: 1

Q: I am curious: what Growth Rate value has been reported for "CSc1cccnc1N1CCN(Cc2nc3ccccc3[nH]2)CC1" ?
A: 1

Q: Value lookup for Growth Rate; key = "CCOC(=O)CCNc1cc(N2CCc3ccccc3CC2)nc(-c2cccnc2)n1"
A: 1

====

Would you mind telling me the reported Population Fragmented Nuclei (%) of each entry?
System: Fibroblast
Assay: Multiplex assay against human fibroblast
Type: toxicity, cell-based
Settings: 12 h, 1 µM, compound concentration 1 uM, replicate 2
Record the value in %, omitting the unit from your answer.

Q: Lab request: please report Population Fragmented Nuclei (%) under test system Fibroblast for "C=CC(=O)Nc1cccc(Sc2nc(Nc3ccc(N4CCN(C)CC4)cc3)ncc2Cl)c1"
A: 48

Q: Please provide the recorded Population Fragmented Nuclei (%) for "Cc1nc(N2CC[C@H](O)C2)ncc1-c1cc(C(F)(F)F)cc2[nH]ncc12" , tested on Fibroblast.
A: 42

Q: Can you look up Population Fragmented Nuclei (%) on Fibroblast for "CC(C)Oc1ccccc1C(=O)Nc1ccccc1C(=O)Nc1cccc(S(=O)(=O)C(F)(F)F)c1" ?
A: 20

====

System: U2OS
Assay: Multiplex assay against U2OS
Assay type: toxicity, cell-based
Conditions: human, 48 h, 10 µM, compound concentration 10 uM, replicate 1
Measured endpoint: Population Membrane Permeable-Phenotype (%)
# value in %; strip the unit string

Q: Population Membrane Permeable-Phenotype (%) for Cc1ccc2c(c1)c1c(n2CCc2ccc(C)nc2)CCN(C)C1 [LATREPIRDINE] ?
A: 28

Q: I am curious: what Population Membrane Permeable-Phenotype (%) value has been reported for Cc1cccc(CN2CCN(C(c3ccccc3)c3ccc(Cl)cc3)CC2)c1.Cl.Cl (stereo not given) ?
A: 3

Q: # input compound: O=C(c1cc2c(cc1F)OC(c1ccc(F)cc1)(c1ccc(Cl)cc1Cl)O2)N1CCOCC1 (stereo not given) ; wanted: its Population Membrane Permeable-Phenotype (%)
A: 65

Q: Reported Population Membrane Permeable-Phenotype (%), compound "CC(C)OC(=O)N1CCC(Oc2ncnc3c2cnn3-c2ccc(S(C)(=O)=O)cc2F)CC1" : ____
A: 2

Q: For the compound "COc1ccccc1CN[C@H]1C2CCN(CC2)[C@H]1C(c1ccccc1)c1ccccc1" , what Population Membrane Permeable-Phenotype (%) is on record?
A: 11

====

Record form. Attribute: Population Fragmented Nuclei (%). Fill in for each entry.
Tested on: HEK-293T
Test: Multiplex assay against HEK293T
Assay type: toxicity, cell-based
Details: human, 48 h, 10 µM, compound concentration 10 uM, replicate 2
Give the value, in units of %, as a plain number.

Q: Fill in: Population Fragmented Nuclei (%) of O=C(c1cc2c(cc1F)OC(c1ccc(F)cc1)(c1ccc(Cl)cc1Cl)O2)N1CCOCC1 (stereo not given) is ___
A: 8

Q: Name the recorded Population Fragmented Nuclei (%) for "O=c1cc(N2CCOCC2)oc2c(-c3cccc4c3sc3ccccc34)cccc12" .
A: 8

Q: GET /values?readout=Population Fragmented Nuclei (%)&item= CC(C)(C)NC[C@H](O)COc1nsnc1N1CCOCC1 [TIMOLOL]
A: 7

Q: Which value of Population Fragmented Nuclei (%) has been reported for "CCc1ccc(OCc2ccccc2C(=O)Nc2ccc3nc(C)cc(N)c3c2)cc1.Cl" in the records?
A: 31

Q: Population Fragmented Nuclei (%) lookup needed for C#Cc1cccc(Nc2ncnc3cc(OCCOC)c(OCCOC)cc23)c1 [ERLOTINIB] , thanks.
A: 4

Q: Entry COc1ccccc1CN[C@H]1C2CCN(CC2)[C@H]1C(c1ccccc1)c1ccccc1 [CP-96345] : reported Population Fragmented Nuclei (%) = ?
A: 3

Q: Value lookup for Population Fragmented Nuclei (%); key = "COc1cc(Nc2nccc(-c3cnn4nc(OC)ccc34)n2)cc(C(F)(F)F)c1"
A: 7

Q: Need Population Fragmented Nuclei (%) of COc1cc2ncn(-c3cc(OCc4ccccc4C(F)(F)F)c(C(N)=O)s3)c2cc1OC [GW843682X] , thanks.
A: 7

Q: Given "CC(C)NC(=O)N1CC[C@H](NC2=Nc3cc(F)ccc3N(CC(F)F)c3ccc(Cl)cc32)C1" , state its recorded Population Fragmented Nuclei (%).
A: 8

Q: # query: Population Fragmented Nuclei (%) of entry CC(C)c1noc(N2CCC(COc3ccc(-c4ccc(S(C)(=O)=O)cc4)nc3)CC2)n1 [GSK-1292263]
A: 8
